Target: Potassium voltage-gated channel subfamily KQT member 2 (Rattus norvegicus) (UniProt O88943)
Sequence (O88943 whole entry, looked up): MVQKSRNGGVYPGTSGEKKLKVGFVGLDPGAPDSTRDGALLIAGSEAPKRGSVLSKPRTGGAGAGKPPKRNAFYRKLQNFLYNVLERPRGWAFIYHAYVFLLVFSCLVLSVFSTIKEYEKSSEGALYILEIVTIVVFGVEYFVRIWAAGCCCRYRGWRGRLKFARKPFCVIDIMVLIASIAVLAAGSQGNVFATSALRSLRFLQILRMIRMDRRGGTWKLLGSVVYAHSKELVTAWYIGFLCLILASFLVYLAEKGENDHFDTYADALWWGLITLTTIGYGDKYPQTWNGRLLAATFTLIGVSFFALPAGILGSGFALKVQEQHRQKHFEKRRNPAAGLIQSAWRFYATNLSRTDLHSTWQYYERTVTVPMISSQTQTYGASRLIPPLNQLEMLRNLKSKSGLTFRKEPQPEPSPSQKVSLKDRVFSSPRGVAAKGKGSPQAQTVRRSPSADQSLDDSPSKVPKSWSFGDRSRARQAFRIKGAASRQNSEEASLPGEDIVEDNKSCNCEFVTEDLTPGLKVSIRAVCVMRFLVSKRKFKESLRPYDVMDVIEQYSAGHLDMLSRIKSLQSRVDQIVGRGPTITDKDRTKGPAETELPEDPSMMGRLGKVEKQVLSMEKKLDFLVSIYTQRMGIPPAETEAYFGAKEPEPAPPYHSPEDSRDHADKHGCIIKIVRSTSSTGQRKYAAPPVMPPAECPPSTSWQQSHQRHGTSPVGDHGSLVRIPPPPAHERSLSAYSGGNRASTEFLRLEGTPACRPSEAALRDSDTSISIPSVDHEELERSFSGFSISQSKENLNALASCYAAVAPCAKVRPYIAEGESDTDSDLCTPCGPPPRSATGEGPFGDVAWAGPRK
Assay: KCNQ2 potentiation in CHO cells – cell-based, FluxOR thallium flux, counter-screen for hERG block protector project, confirmation (AID 1942)
Conditions: FluxOR thallium flux fluorescence, at 10 µM
Among all 2,400 compounds or so, about 580 (24%) were called active.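 How the source made its calls: active means activity change at or above the mean plus 3 SD of buffer wells without dofetilide, per plate; inactive means the rest.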 Not all results are given here.
Select the correct class. Options are active, inactive and nothing else.

>>> class_label("S=c1[nH]nc(-c2n[nH]c3c2CCC3)n1/N=C/C=C/c1ccccc1")
"inactive"
>>> class_label("COc1ccc(NC(=S)NC(=O)c2ccc(Br)o2)cc1")
"active"
>>> class_label("CCOc1ccc(-c2cccc(NC(=O)c3ccc(Br)o3)c2)nn1")
"inactive"
>>> class_label("CCOc1ccc(C(=O)Nc2ccccc2C(=O)O)cc1")
"inactive"
>>> class_label("Nc1nonc1C(=O)N1CCCC1")
"inactive"

Lab log entry: `CN(Cc1ccccc1)C1CCN(Cc2ccccc2[N+](=O)[O-])CC1` — outcome as called in the assay?
inactive

How did this test come out for `COc1cccc(NC(=O)c2cncs2)c1` ?
inactive

Record request — test call for `O=C(NC(=S)NCc1ccccc1)c1ccc(Br)o1`
active

Tell me the assay call for `O=C(Nc1ccccc1C(=O)O)c1cccc(NC(=O)c2ccccc2Br)c1` please.
inactive

Which result was noted for this molecule in the test: `Cc1ccc(NC(=O)CN2C(=O)N/C(=C/c3ccccc3OCc3cccc(C(=O)O)c3)C2=O)cc1`
inactive

# outcome recorded in this test, key = `CCc1ccc(NC(=O)C(=O)NNC(=O)c2cccc(OC)c2)cc1`
active

---

Target: Potassium voltage-gated channel subfamily KQT member 2 (Rattus norvegicus) (UniProt O88943)
Experiment: KCNQ2 potentiation in CHO cells – cell-based, FluxOR thallium flux, counter-screen for hERG block protector project, confirmation (AID 1942)
Conditions: FluxOR thallium flux fluorescence, at 10 µM
Out of some 2,400 compounds screened, about 580 (24%) were called active.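 Rule for the calls: active = activity change at or above the mean plus 3 SD of buffer wells without dofetilide, per plate; inactive = the rest.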 These entries were drawn from the full list.
Please reply with one of these outcomes: active, inactive

Answered examples (10):
>>> class_label("S=C(NCCc1ccccc1)NCCN1CCOCC1")
"inactive"
>>> class_label("COc1ccc(C(=O)NNC(=O)C(=O)Nc2cccc3ccccc23)cc1")
"active"
>>> class_label("O=C(NC(=S)NCCc1ccc(Cl)cc1)c1ccco1")
"inactive"
>>> class_label("COc1cc(NC(=O)c2cc(-c3cccnc3)nc3ccc(C)cc23)c(OC)cc1Cl")
"inactive"
>>> class_label("COc1cccc(CCNS(=O)(=O)CCNC(=O)c2cccc(OC)c2)c1")
"inactive"
>>> class_label("COc1cc(NC(=O)c2ccc3c(c2)OCO3)ccc1NC(=O)c1cccs1")
"inactive"
>>> class_label("COc1ccc(OC)c(NC(=O)C(=O)NNC(=O)c2cccs2)c1")
"inactive"
>>> class_label("COc1cc(OC)cc(C(=O)NNC(=O)C(=O)Nc2cc(OC)c(Cl)cc2OC)c1")
"active"
>>> class_label("COc1ccc(NC(=O)C(=O)NNC(=O)c2cccs2)c(OC)c1")
"active"
>>> class_label("CCC(C)(C(=O)NC1CCCC1)N(Cc1ccco1)C(=O)c1ccccn1 (stereo unspecified)")
"inactive"

Could you kindly confirm the outcome this assay logged for `COc1cccc(C(=O)NNC(=O)C(=O)Nc2cccc3ccccc23)c1` ?
active
